Biological target: Acetylcholinesterase (Homo sapiens)
Sequence (P22303 whole entry): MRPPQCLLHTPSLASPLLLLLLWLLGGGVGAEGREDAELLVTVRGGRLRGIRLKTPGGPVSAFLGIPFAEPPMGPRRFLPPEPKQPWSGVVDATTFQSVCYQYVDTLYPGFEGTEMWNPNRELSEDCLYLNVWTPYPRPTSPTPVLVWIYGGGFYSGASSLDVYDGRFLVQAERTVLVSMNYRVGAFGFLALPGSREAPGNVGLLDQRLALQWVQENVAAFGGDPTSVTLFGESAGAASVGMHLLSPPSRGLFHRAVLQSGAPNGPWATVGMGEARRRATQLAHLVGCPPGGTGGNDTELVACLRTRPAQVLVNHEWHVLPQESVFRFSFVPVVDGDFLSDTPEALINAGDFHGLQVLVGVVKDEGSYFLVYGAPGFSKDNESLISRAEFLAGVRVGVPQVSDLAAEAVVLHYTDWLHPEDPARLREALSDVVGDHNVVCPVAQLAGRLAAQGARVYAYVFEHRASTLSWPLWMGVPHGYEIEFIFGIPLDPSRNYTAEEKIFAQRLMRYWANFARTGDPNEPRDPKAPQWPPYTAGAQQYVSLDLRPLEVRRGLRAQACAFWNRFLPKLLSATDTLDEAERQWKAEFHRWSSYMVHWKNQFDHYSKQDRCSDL
observationType: pIC50
Lab note — pIC50 values are minus log10 of concentrations in M.

In the examples that follow, each entry is paired with its recorded pIC50.
INSERT INTO results (compound, recordedvalue) VALUES
  ('O=P(O)(O)CN(CP(=O)(O)O)C1CCCCC1', 2.00),
  ('O=P(O)(O)CN(CCc1ccccc1)CP(=O)(O)O', 1.96),
  ('O=P(O)(O)CN(CP(=O)(O)O)C1CCCC1', 1.96),
  ('CCCCCN(CP(=O)(O)O)CP(=O)(O)O', 1.93),
  ('O=P(O)(O)CN1CCCN(CP(=O)(O)O)CC1', 1.54),
  ('O=P(O)(O)CN(Cc1ccccc1)CP(=O)(O)O', 1.92),
  ('CCN(CP(=O)(O)O)CP(=O)(O)O', 1.66),
  ('CN(CP(=O)(O)O)CP(=O)(O)O', 1.55);

INPUT: Return reported pIC50. Input compound: CCCN(CP(=O)(O)O)CP(=O)(O)O
OUTPUT: 1.90

INPUT: For CC(C)N(CP(=O)(O)O)CP(=O)(O)O , write its pIC50.
OUTPUT: 2.04

INPUT: Give the reported value of pIC50 for this record: CCCCC(CC)CN(CP(=O)(O)O)CP(=O)(O)O (stereo unspecified)
OUTPUT: 2.02
